The reported numbers originate from paper PMC6858373.

Target: FGF14:Nav1.6 C-tail complex (Homo sapiens, UniProt Q92915+Q9UQD0)
Construct: polymerase chain reaction (PCR) amplification of the FGF14 open reading frame (nt 1–855); C-terminal fragment of Nav1.6 (amino acids 1763–1976) fused with CD4ΔC-tail (amino acids 1–395); expressed in transfected cells
Sequence (Q92915 1-252 isoform Q92915-2): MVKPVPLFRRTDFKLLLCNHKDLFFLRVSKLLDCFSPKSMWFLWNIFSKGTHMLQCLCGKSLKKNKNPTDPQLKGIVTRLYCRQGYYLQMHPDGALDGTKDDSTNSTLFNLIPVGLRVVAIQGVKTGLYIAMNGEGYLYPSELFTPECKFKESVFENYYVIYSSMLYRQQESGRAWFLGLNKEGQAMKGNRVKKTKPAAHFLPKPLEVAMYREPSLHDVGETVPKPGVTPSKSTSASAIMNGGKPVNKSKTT
Sequence (Q9UQD0 1763-1976 limits assumed): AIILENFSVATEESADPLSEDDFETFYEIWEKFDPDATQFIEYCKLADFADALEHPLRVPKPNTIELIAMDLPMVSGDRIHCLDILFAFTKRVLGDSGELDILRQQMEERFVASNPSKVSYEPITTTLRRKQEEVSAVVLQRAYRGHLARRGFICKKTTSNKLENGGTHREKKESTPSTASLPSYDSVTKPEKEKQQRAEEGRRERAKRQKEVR
Assay: Split-luciferase complementation assay (LCA) in Clone V double stable HEK293 cells
Assay type: cell-based
As shown below, each of these compounds has a reported Split Luciferase Assay Z-score Set 1 value.

>  <compound>
Oc1ncc(N(CCCl)CCCl)c(O)n1

>  <Split Luciferase Assay Z-score Set 1>
-1.91

$$$$
>  <compound>
C[S+]([O-])c1ccc(-c2nc(-c3ccncc3)c(-c3ccc(F)cc3)[nH]2)cc1 (stereo not drawn) [SB 203580, reference compound]

>  <Split Luciferase Assay Z-score Set 1>
3.10

$$$$
>  <compound>
O=P1(N(CCCl)CCCl)NCCCO1 (stereo not drawn) [Cyclophosphamide]

>  <Split Luciferase Assay Z-score Set 1>
0.64

$$$$
>  <compound>
C1CN1c1nc(N2CC2)nc(N2CC2)n1

>  <Split Luciferase Assay Z-score Set 1>
1.52

$$$$
>  <compound>
CC[C@H](CO)Nc1nc(NCc2ccccc2)c2ncn(C(C)C)c2n1

>  <Split Luciferase Assay Z-score Set 1>
-5.42

$$$$
>  <compound>
C[C@]12CC[C@@H]3c4ccc(OC(=O)N(CCCl)CCCl)cc4CC[C@H]3[C@@H]1CC[C@@H]2OP(=O)(O)O [Estramustine phosphate sodium]

>  <Split Luciferase Assay Z-score Set 1>
-5.95

$$$$

###

Biological target: FGF14:Nav1.6 C-tail complex (Homo sapiens, UniProt Q92915+Q9UQD0)
Construct: polymerase chain reaction (PCR) amplification of the FGF14 open reading frame (nt 1–855); C-terminal fragment of Nav1.6 (amino acids 1763–1976) fused with CD4ΔC-tail (amino acids 1–395); expressed in transfected cells
Assay: Split-luciferase complementation assay (LCA) in Clone V double stable HEK293 cells
Format: cell-based
Settings: CC_NCI screening; average of Set 1 and Set 2; normalized to 0.3% DMSO controls
As shown below, each of these compounds has a reported Split Luciferase Assay %Lum Avg value.

>  <compound>
Cc1ccc(Nc2nccc(N(C)c3ccc4c(C)n(C)nc4c3)n2)cc1S(N)(=O)=O

>  <units.text>
%

>  <Split Luciferase Assay %Lum Avg>
111.55

$$$$
>  <compound>
NC(=O)c1ccc(-c2nc(-c3ccc4c(c3)OCO4)c(-c3ccccn3)[nH]2)cc1

>  <units.text>
%

>  <Split Luciferase Assay %Lum Avg>
113.37

$$$$
>  <compound>
CCCS(=O)(=O)Nc1ccc(F)c(C(=O)c2c[nH]c3ncc(-c4ccc(Cl)cc4)cc23)c1F [PLX4032]

>  <units.text>
%

>  <Split Luciferase Assay %Lum Avg>
49.64

$$$$
>  <compound>
FC(F)c1nc2ccccc2n1-c1nc(N2CCOCC2)nc(N2CCOCC2)n1

>  <units.text>
%

>  <Split Luciferase Assay %Lum Avg>
85.45

$$$$
>  <compound>
C[C@]1(c2nc3c(C(N)=O)cccc3[nH]2)CCCN1

>  <units.text>
%

>  <Split Luciferase Assay %Lum Avg>
84.48

$$$$
>  <compound>
Nc1nc(F)nc2c1ncn2[C@@H]1O[C@H](COP(=O)(O)O)[C@@H](O)[C@@H]1O [Fludarabine phosphate]

>  <units.text>
%

>  <Split Luciferase Assay %Lum Avg>
115.97

$$$$
>  <compound>
O=C(/C=C/c1cccc(S(=O)(=O)Nc2ccccc2)c1)NO

>  <units.text>
%

>  <Split Luciferase Assay %Lum Avg>
105.94

$$$$
>  <compound>
O=c1[nH]c(=O)n([C@H]2C[C@H](O)[C@@H](CO)O2)cc1F [Floxuridine, reference compound]

>  <units.text>
%

>  <Split Luciferase Assay %Lum Avg>
146.01

$$$$
